- Assay target: T1, recombinant human CD3 epsilon/delta heterodimer (human, UniProt P07766 23-126; P04234 22-105)
- T1 construct: Recombinant heterodimer used as analyte in Octet; also called hCD3 E/D; human CD3E/D
- T1 sequence (P07766 23-126, stated change not applied, chain 1 of 2): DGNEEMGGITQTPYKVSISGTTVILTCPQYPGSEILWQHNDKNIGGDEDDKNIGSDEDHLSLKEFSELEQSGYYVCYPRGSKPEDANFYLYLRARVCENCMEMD
- T1 sequence (P04234 22-105, stated change not applied, chain 2 of 2): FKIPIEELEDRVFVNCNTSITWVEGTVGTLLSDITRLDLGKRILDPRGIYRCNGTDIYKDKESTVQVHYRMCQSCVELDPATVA
- Protocol summary: BLI (Octet), mAb 5 ug/mL on FAB2G sensor, hCD3 E/D 200-50 nM
The label is condition met for kon below 200000 M⁻¹ s⁻¹ and condition not met for kon equal to or exceeding 200000 M⁻¹ s⁻¹.

# count of solved cases: 4
[
  {
    "Binder": "ABL-CD3-78 (antibody, V domains shown, mAb purified from hybridoma; chimeric AlivaMab IgG (human VH, CH1 and upper hinge; mouse middle hinge, CH2, CH3; human light chain)) VH: EVQLVESGGGLVKPGGSLRLSCAASGFTVSNYSMNWVRQAPGKGLEWVSCISRSSSYIYYADSVKGRFTISRDNAKNSLFLQMNSLRAEDTAVYYCARERWELLYFDYWGQGTLVTVSS VL: NFMLTQPHSVSESPGKTVTISCTRSSGSIASNYVQWYQQRPGSSPTTVIYEDNQRPSGVPDRFSGSIDSSSNSASLTISGLKTEDEADYYCQSFDGSNRVFGGGTKLTVL",
    "Assigned category": "condition met"
  },
  {
    "Binder": "ABL-CD3-72 (antibody, V domains shown, mAb purified from hybridoma; chimeric AlivaMab IgG (human VH, CH1 and upper hinge; mouse middle hinge, CH2, CH3; human light chain)) VH: EVQLVESGGGLVKPGGSLRLSCAASGFTFSTYIMNWVRQAPGKGLEWVSSISSSRSYIYYADSVKGRFTISRDNAKNSLYLQMNSLRAEDTAVYYCAREDRYRLFFDYWGQGTLVTVSS VL: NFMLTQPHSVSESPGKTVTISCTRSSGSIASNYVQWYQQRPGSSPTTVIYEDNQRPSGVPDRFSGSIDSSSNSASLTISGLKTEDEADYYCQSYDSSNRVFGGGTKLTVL",
    "Assigned category": "condition not met"
  },
  {
    "Binder": "ABL-CD3-82 (antibody, V domains shown, mAb purified from hybridoma; chimeric AlivaMab IgG (human VH, CH1 and upper hinge; mouse middle hinge, CH2, CH3; human light chain)) VH: EVQLVESGGGLVKPGGSLRLSCAASGFTFSSYSMNWVRQAPGKGLEWVSSISSSSSYIYYADSVKGRFTISRDNAKNSLYLQMNSLRAEDTAVYYCARDRRELLLDYWGQGTLVTVSS VL: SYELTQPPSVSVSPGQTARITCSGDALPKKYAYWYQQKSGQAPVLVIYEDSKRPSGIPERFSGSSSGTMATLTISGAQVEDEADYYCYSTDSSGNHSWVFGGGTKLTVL",
    "Assigned category": "condition met"
  },
  {
    "Binder": "ABL-CD3-81 (antibody, V domains shown, mAb purified from hybridoma; chimeric AlivaMab IgG (human VH, CH1 and upper hinge; mouse middle hinge, CH2, CH3; human light chain)) VH: QVQLQESGPGLVKPSQTLSLTCTVSGGSISSGGYYWSWIRQHPGKGLEWIGYIYYSGSTYYNPSLKSRVTISVDTSKDQFSLKLSSVTAADTAVYYCARERKTSLPFDIWGQGTMVTVSS VL: NFMLTQPHSVSESPGKTVTISCTRSSGSIASNYVQWYQQRPGSSPTTVIYEDNQRPSGVPDRFSGSIDSSSNSASLTISGLKTEDEAYYYCQSFDSSNRVFGGGTKLTVL",
    "Assigned category": "condition not met"
  }
]

We now examine a further binder.
Determine if ABL-CD3-69 (antibody, V domains shown, mAb purified from hybridoma; chimeric AlivaMab IgG (human VH, CH1 and upper hinge; mouse middle hinge, CH2, CH3; human light chain)) VH: EVQLVESGGGLVKPGGSLRLSCAASGFTFSTYTMNWVRQAPGKGLEWVSTITSSSRYIYYADSVKGRFTISRDNAKNSLYLQMNSLRAEDTAVYYCARVTFDAFDIWGQGTMVTVSS VL: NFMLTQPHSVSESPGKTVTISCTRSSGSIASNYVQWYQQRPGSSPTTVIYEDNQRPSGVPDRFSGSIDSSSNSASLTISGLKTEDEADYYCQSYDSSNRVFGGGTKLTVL shows kon strictly lower than 200000 M⁻¹ s⁻¹.
condition met
